# Target entity: Glycogen synthase kinase-3 alpha (Homo sapiens) (UniProt P49840)
# Sequence (P49840 whole entry, looked up): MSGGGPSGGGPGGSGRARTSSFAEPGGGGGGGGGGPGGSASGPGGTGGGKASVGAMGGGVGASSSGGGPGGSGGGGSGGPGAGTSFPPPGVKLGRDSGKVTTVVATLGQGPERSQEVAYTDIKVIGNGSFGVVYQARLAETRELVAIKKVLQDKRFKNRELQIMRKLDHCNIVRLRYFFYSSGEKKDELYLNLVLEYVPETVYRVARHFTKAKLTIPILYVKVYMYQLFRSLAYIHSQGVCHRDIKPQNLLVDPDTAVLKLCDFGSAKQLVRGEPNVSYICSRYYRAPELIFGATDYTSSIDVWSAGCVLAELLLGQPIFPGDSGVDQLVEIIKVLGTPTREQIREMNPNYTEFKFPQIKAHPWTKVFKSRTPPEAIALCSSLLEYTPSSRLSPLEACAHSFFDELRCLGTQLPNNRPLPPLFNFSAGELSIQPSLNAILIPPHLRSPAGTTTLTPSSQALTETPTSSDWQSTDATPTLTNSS
# Test method notes: concentration-response blocking of human GSK3A – biochemical, luminescence, cell-free homogeneous, retest, dose response (AID 463203)
# Experimental conditions: GSK-3 alpha enzyme, ADP-Glo luminescence, 60 min
Calls of active or inactive are those of the source.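 The calls were made as follows: active = more than half of replicate measurements showing over 20% loss of kinase signal relative to plate controls; inconclusive = some but at most half of replicates over 20% loss; inactive = no replicate over 20% signal loss.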
Outcome codes: true for active, false for inactive

Molecule	Class label
N#C/C(=N\Nc1c(Cl)cccc1Cl)C(=O)NN	true
Cc1ccc(N=C2NC(=O)/C(=C\c3ccc(C)s3)S2)cc1	false
Cn1c(SCc2cnc(-c3ccccc3)s2)nnc1C1COc2ccccc2O1 (stereo not drawn)	false
Cc1ccc(C(=O)Nc2cccc(-c3cnc4ccccc4n3)c2)cc1	false
Cn1c(=O)c2[nH]c(NCC3CCCO3)nc2n(-c2ccccc2)c1=O (stereo not drawn)	true
CCSc1nnc([C@@H](N)Cc2c[nH]c3ccccc23)o1	false
CN(C)CCCNS(=O)(=O)c1ccc(NC2CCCCCC2)c([N+](=O)[O-])c1	false
CCCCC(NS(=O)(=O)c1ccc(OC)cc1)C(=O)O (stereo not drawn)	false
O=C1/C(=C/c2ccc3c(c2)OCO3)Oc2cc(OCC(=O)N3CC(O)C[C@H]3C(=O)O)ccc21 (stereo partly drawn)	true
O=C(O)c1ccc(N=Cc2c(O)ccc3oc4c(c23)CCCC4)cc1	false
CN(C)c1ccc(CN2CCCCC2)cc1	false
O=C(CN1CCCCCC1)Nc1ccccc1Oc1ccccc1	false
N#CC(C#N)=Cc1c[nH]c(=O)c(C#N)c1Nc1ccccc1	true
Cc1csc(NC(=O)c2ccc3c(c2)OCO3)n1	false
COC(=O)c1c(NC(=O)Cc2cccs2)sc2c1CCCC2	false
O=C(Nc1ccccc1-c1nnc(SCc2ccccc2)o1)c1ccccc1	false
Cc1oc2ccc(O)c(CN3CCOCC3)c2c1C(=O)c1ccc(Cl)cc1	false
Cc1ccc(NC(=O)c2cc(-n3cnnc3)ccc2Cl)cc1	false
Cc1cccc(C(=O)O/N=C(\N)c2cccc([N+](=O)[O-])c2)c1	false
CC1=NN(c2nc(-c3ccc(Cl)cc3)cs2)C(=O)C1	false
O=C(O)c1ccc(Nc2nc(-c3ccccc3)nc3ccccc23)cc1	false
CC1=C(C(=O)OCc2ccc3c(c2)OCO3)C(c2ccccc2)NC(=O)N1 (stereo not drawn)	true
O=S(=O)(Nc1ccc(-c2nnc(SCc3ccc(Cl)cc3)o2)cc1)c1ccccc1	false
CCC(C)[C@H](NC(=O)Nc1ccc(S(N)(=O)=O)cc1)C(=O)O (stereo partly drawn)	false
Cn1c(=O)c2c(nc(NCC3CCCO3)n2Cc2ccccc2)n(C)c1=O (stereo not drawn)	false
CCCCOC(=O)Nc1nnc(COc2ccccc2)s1	false
CC1CCN(Cc2c(C(=O)N/N=C/c3ccc(C(C)(C)C)cc3)nnn2-c2nonc2N)CC1	false
COc1ccccc1-n1c(O)c(C=NCCCn2ccnc2)c(=O)[nH]c1=O	true
COC(=O)CCCCCCCCC(O)CN(C)C (stereo not drawn)	false
COC(=O)c1sccc1-c1ccc(C(N)=O)o1	true
COc1ccc(C2CC(=O)N3CN(c4ccccc4F)CSC3=C2C#N)cc1OC (stereo not drawn)	false
Cc1ccc(C)c(/C=N/Nc2ccccn2)c1	false
COc1ccc(CCNC(=O)CSc2nc3[nH]ncc3c(=O)n2-c2cccc(C(F)(F)F)c2)cc1OC	false

* * *

# Target entity: Glycogen synthase kinase-3 alpha (Homo sapiens) (UniProt P49840)
# Test method notes: concentration-response blocking of human GSK3A – biochemical, luminescence, cell-free homogeneous, retest, dose response (AID 463203)
# Experimental conditions: GSK-3 alpha enzyme, ADP-Glo luminescence, 60 min
Activity calls are given as the source filed them.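 The calls were made as follows: active = more than half of replicate measurements showing over 20% loss of kinase signal relative to plate controls; inconclusive = some but at most half of replicates over 20% loss; inactive = no replicate over 20% signal loss.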

Compound	AC50
CCCCn1c(O)c(C(CC)=NCCCn2ccnc2)c(=O)[nH]c1=O	13.9 µM
O=C(Nc1cccc(Cl)c1N1CCCC1)c1ccc(Br)o1	> 30 µM (inactive)
COc1cc(/C=N/NC(=O)c2cccnc2)cc(Br)c1O	> 30 µM (inactive)
COCCCNc1c2c(nc3nnnn13)CCCC2	> 30 µM (inactive)
CCCc1c(C(=O)N/N=C/C(C)=C/c2ccco2)nnn1-c1nonc1N	> 30 µM (inactive)
CCOC(=O)c1cnn(C)c1NC(=O)c1ccc(Cl)cc1Cl	> 30 µM (inactive)
NC(=O)c1sc2nc3c(c(-c4ccccc4)c2c1N)CCC3	13.9 µM
Cc1nc(SCC(=O)NCC2CCCO2)c2c(C)c(C)sc2n1 (centres undefined)	> 30 µM (inactive)
Clc1ccccc1C1=Nn2c(nnc2-c2ccco2)SC1	30.4 µM

* * *

# Target entity: Glycogen synthase kinase-3 alpha (Homo sapiens)
# Test method notes: concentration-response blocking of human GSK3A – biochemical, luminescence, cell-free homogeneous, retest, dose response (AID 463203)
# Experimental conditions: GSK-3 alpha enzyme, ADP-Glo luminescence, 60 min
Active and inactive are the calls of the source.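 The calls were made as follows: active = more than half of replicate measurements showing over 20% loss of kinase signal relative to plate controls; inconclusive = some but at most half of replicates over 20% loss; inactive = no replicate over 20% signal loss.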
Outcomes: active, inactive

CN1CCN(Cc2c(C(=O)N/N=C/c3cccc(Br)c3)nnn2-c2nonc2N)CC1 active
COc1ccc(C(=O)c2ccccc2Cl)cc1 inactive
O=C(CSCc1ccc([N+](=O)[O-])cc1)NN=C1CCCCCC1 inactive

* * *

# Target entity: Glycogen synthase kinase-3 alpha (Homo sapiens)
# Test method notes: concentration-response blocking of human GSK3A – biochemical, luminescence, cell-free homogeneous, retest, dose response (AID 463203)
# Experimental conditions: GSK-3 alpha enzyme, ADP-Glo luminescence, 60 min
Active and inactive are the calls of the source.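 The calls were made as follows: active = more than half of replicate measurements showing over 20% loss of kinase signal relative to plate controls; inconclusive = some but at most half of replicates over 20% loss; inactive = no replicate over 20% signal loss.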
Classes used: y (active), n (inactive)

Molecule	Target entity	Class label
O=C(NC1(C(F)(F)F)NC(=O)N(Cc2cccnc2)C1=O)c1ccccc1 (stereo unspecified)	Glycogen synthase kinase-3 alpha (Homo sapiens)	n
CCC(Oc1ccccc1)C(=O)N(C)CC(=O)N(CC(C)C)c1c(N)n(CC(C)C)c(=O)[nH]c1=O (stereo unspecified)	Glycogen synthase kinase-3 alpha (Homo sapiens)	n
Cc1sc2ncnc(N3CCC(C(=O)Nc4ccc(S(N)(=O)=O)cc4)CC3)c2c1C	Glycogen synthase kinase-3 alpha (Homo sapiens)	y
Cc1ccc(C)c(Sc2ccc(NC(=O)CCl)cc2)c1	Glycogen synthase kinase-3 alpha (Homo sapiens)	n
C[n+]1cccc(/C=N/Nc2nc(Cl)c(C#N)c(Cl)c2Cl)c1	Glycogen synthase kinase-3 alpha (Homo sapiens)	n
CO/N=C/c1ccc(N2CCCC2)c([N+](=O)[O-])c1	Glycogen synthase kinase-3 alpha (Homo sapiens)	n
O=C(c1ccco1)N(Cc1ccccc1)c1cccc([N+](=O)[O-])c1	Glycogen synthase kinase-3 alpha (Homo sapiens)	n
O=c1c2ccccc2oc2cc(NCCCn3ccnc3)ccc12	Glycogen synthase kinase-3 alpha (Homo sapiens)	n
COc1ccccc1N1CCN(CCC(=O)Nc2cccc(Cl)c2)CC1	Glycogen synthase kinase-3 alpha (Homo sapiens)	y
Cc1cc(/C=N/O)c(C)n1-c1ccc(Br)cc1	Glycogen synthase kinase-3 alpha (Homo sapiens)	n
CCOC(=O)c1sc(NC(=O)CN2C(=O)NC3(CCC(C)CC3)C2=O)c(C(=O)OCC)c1C (stereo unspecified)	Glycogen synthase kinase-3 alpha (Homo sapiens)	n
Cc1oc2ccc(O)cc2c1C(=O)c1ccc(Br)cc1	Glycogen synthase kinase-3 alpha (Homo sapiens)	n
COc1cc2c(cc1OC)-c1c3c(cc4c1[C@@H](C2)N(C)CC4)OCO3	Glycogen synthase kinase-3 alpha (Homo sapiens)	y
O=C(O)c1cccc(Nc2nc(-c3cccnc3)nc3ccccc23)c1	Glycogen synthase kinase-3 alpha (Homo sapiens)	y
Nc1nonc1-c1nc2ccccc2n1CCC(=O)O	Glycogen synthase kinase-3 alpha (Homo sapiens)	y
COc1ccc(S(=O)(=O)NCc2ccc(C(=O)N3CCC4(CC3)OCCO4)cc2)cc1	Glycogen synthase kinase-3 alpha (Homo sapiens)	n
CCc1ccc(/C=N/NC(=O)c2nnn(-c3nonc3N)c2C(C)C)cc1	Glycogen synthase kinase-3 alpha (Homo sapiens)	n
Cc1c(C(=O)NCCc2ccccc2)oc2ccccc12	Glycogen synthase kinase-3 alpha (Homo sapiens)	n
COc1ccc(-c2cnc(N)nc2-c2ccc(OC)cc2O)cc1	Glycogen synthase kinase-3 alpha (Homo sapiens)	y
COc1ccc2cc(C(N)=O)c(=Nc3ccc(C)cc3)oc2c1	Glycogen synthase kinase-3 alpha (Homo sapiens)	n
CCCc1c(C(=O)N/N=C/c2cccnc2)nnn1-c1nonc1N	Glycogen synthase kinase-3 alpha (Homo sapiens)	n
CCCn1c2ccccc2c2nc3ccccc3nc21	Glycogen synthase kinase-3 alpha (Homo sapiens)	n
COc1ccccc1NC(=O)CSc1nnc(-c2ccncc2)o1	Glycogen synthase kinase-3 alpha (Homo sapiens)	n
Cc1ccc(S(=O)(=O)Nc2cccc3ncccc23)cc1	Glycogen synthase kinase-3 alpha (Homo sapiens)	n
CC(C)(C)c1ccc(/C=C2\Oc3cc(O)ccc3C2=O)cc1	Glycogen synthase kinase-3 alpha (Homo sapiens)	n
CC(C)OCCCNc1nc2c([nH]1)c(=O)n(C)c(=O)n2C	Glycogen synthase kinase-3 alpha (Homo sapiens)	n
CCCCN(CC)C(=O)c1oc2ccc(S(=O)(=O)N3CCCC3)cc2c1C	Glycogen synthase kinase-3 alpha (Homo sapiens)	n
COc1ccc(NC(=O)Nc2ccc(Br)c(C)c2)cc1	Glycogen synthase kinase-3 alpha (Homo sapiens)	n
Clc1ccc(C2=Nn3c(nnc3-c3cccs3)SC2)cc1	Glycogen synthase kinase-3 alpha (Homo sapiens)	n
Brc1ccccc1C1=Nn2c(nnc2-c2ccco2)SC1	Glycogen synthase kinase-3 alpha (Homo sapiens)	y
O=C(Nc1ccccc1)c1ccc(CSc2ncccn2)cc1	Glycogen synthase kinase-3 alpha (Homo sapiens)	n
COc1cccc(/C=N/Nc2ccc([N+](=O)[O-])cn2)c1O	Glycogen synthase kinase-3 alpha (Homo sapiens)	n
c1cncc(-c2nc(NCC3COc4ccccc4O3)c3ccccc3n2)c1 (stereo unspecified)	Glycogen synthase kinase-3 alpha (Homo sapiens)	y
CCOc1ccc(-c2c(C(=O)N/N=C(\C)c3ccncc3)nnn2-c2nonc2N)cc1	Glycogen synthase kinase-3 alpha (Homo sapiens)	y
Oc1ccc2oc3c(c2c1C=NCc1ccncc1)CCCC3	Glycogen synthase kinase-3 alpha (Homo sapiens)	n
CCN=C(NC#N)SCc1c(F)cccc1Cl	Glycogen synthase kinase-3 alpha (Homo sapiens)	n
Oc1ccc(/C=N/NC(=S)N/N=C/c2ccc(O)cc2)cc1	Glycogen synthase kinase-3 alpha (Homo sapiens)	y
Fc1ccc(Nc2ncnc3sccc23)cc1	Glycogen synthase kinase-3 alpha (Homo sapiens)	n
CCOC(=O)N1CCC(N2CCN(S(=O)(=O)c3ccc([N+](=O)[O-])cc3)CC2)CC1	Glycogen synthase kinase-3 alpha (Homo sapiens)	n
CCOc1ccc(-c2ncncc2-c2ccc(OC)cc2)c(O)c1	Glycogen synthase kinase-3 alpha (Homo sapiens)	n
CCOCCCN(C(=O)c1snc(C(N)=O)c1N)C(C(=O)NC1CCCC1)c1ccc(O)cc1 (stereo unspecified)	Glycogen synthase kinase-3 alpha (Homo sapiens)	y
